- method: Cmax in mouse at 30 mg/kg administered via oral gavage measured after 15 mins to 4 hrs by LC/MS/MS analysis
- Format: ADME, organism-based
- Set-up: dose 30 mg/kg, route oral
- conditionSet: in vivo
quantityKind: Cmax (nM)

compound	unitsSymbol	observedResult
O=C(O)CCC(CP(=O)(O)O)C(=O)O (stereo unspecified)	nM	860

----------
- Tested on: Mus musculus
- method: Cmax in mouse assessed as 2-phosphonomethylpentanedioic acid at 30 mg/kg administered via oral gavage measured after 15 mins to 4 hrs by LC/MS/MS analysis
- Assay type: ADME, organism-based
- Set-up: dose 30 mg/kg, route oral
- conditionSet: in vivo
quantityKind: Cmax (µM)

compound	quantityKind	observedResult
CC(C)OC(=O)OCOC(=O)C(CCC(=O)O)CP(=O)(OCOC(=O)OC(C)C)OCOC(=O)OC(C)C (stereo unspecified)	Cmax	15.1

----------
- method: Metabolic stability in mouse plasma assessed as compound remaining at 10 uM after 1 hr by LC/MS/MS analysis
- Format: ADME, cell-free
- conditionSet: read-out: Stability
Below is a list of entries, each paired with its recorded remaining at 1 h, 10 µM value.

compound	remaining at 1 h, 10 µM
CCOC(=O)CCC(CP(=O)(O)O)C(=O)OCC (stereo unspecified)	59%
CCOC(=O)C(CCC(=O)O)CP(=O)(OCOC(=O)C(C)(C)C)OCOC(=O)C(C)(C)C (stereo unspecified)	3%
CC(C)(C)C(=O)OCOC(=O)C(CCC(=O)O)CP(=O)(OCOC(=O)C(C)(C)C)OCOC(=O)C(C)(C)C (stereo unspecified)	0%
O=C(O)CCC(CP(=O)(O)O)C(=O)O (stereo unspecified)	85%
CC(C)OC(=O)OCOC(=O)C(CCC(=O)O)CP(=O)(OCOC(=O)OC(C)C)OCOC(=O)OC(C)C (stereo unspecified)	0%
COC(=O)C(CCC(=O)O)CP(=O)(OCOC(=O)C(C)(C)C)OCOC(=O)C(C)(C)C (stereo unspecified)	0%

----------
- method: Metabolic stability in human liver microsomes assessed as compound remaining at 10 uM after 1 hr by LC/MS/MS analysis
- Assay type: ADME
- conditionSet: read-out: Stability
With a cut-off of 30%, any remaining at 1 h, 10 µM strictly below it is called Met; any remaining at 1 h, 10 µM meeting it or above is called Not met.

compound	assignedClass
COC(=O)CCC(CP(=O)(OCOC(=O)OC(C)C)OCOC(=O)OC(C)C)C(=O)OC (stereo unspecified)	Met
CCOC(=O)CCC(CP(=O)(O)O)C(=O)OCC (stereo unspecified)	Not met
COC(=O)CCC(CP(=O)(OCOC(=O)C(C)(C)C)OCOC(=O)C(C)(C)C)C(=O)OC (stereo unspecified)	Met
O=C(O)CCC(CP(=O)(O)O)C(=O)O (stereo unspecified)	Not met
COC(=O)C(CCC(=O)O)CP(=O)(OCOC(=O)C(C)(C)C)OCOC(=O)C(C)(C)C (stereo unspecified)	Not met
CCOC(=O)C(CCC(=O)O)CP(=O)(OCOC(=O)C(C)(C)C)OCOC(=O)C(C)(C)C (stereo unspecified)	Met
CC(C)OC(=O)OCOC(=O)C(CCC(=O)O)CP(=O)(OCOC(=O)OC(C)C)OCOC(=O)OC(C)C (stereo unspecified)	Met
CC(C)(C)C(=O)OCOC(=O)C(CCC(=O)O)CP(=O)(OCOC(=O)C(C)(C)C)OCOC(=O)C(C)(C)C (stereo unspecified)	Met
CCOC(=O)C(CCC(=O)O)CP(=O)(OCOC(=O)OC(C)C)OCOC(=O)OC(C)C (stereo unspecified)	Not met
COC(=O)CCC(CP(=O)(O)O)C(=O)OC (stereo unspecified)	Not met
CCOC(=O)CCC(CP(=O)(OCOC(=O)C(C)(C)C)OCOC(=O)C(C)(C)C)C(=O)OCC (stereo unspecified)	Met
